- Target Desc: T1, 4H2944-AA
- T1 chain: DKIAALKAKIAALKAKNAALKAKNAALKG
- Run Description: two-hybrid library CCmax;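 further: natural log of median RNA to DNA barcode read ratio; higher means stronger binding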
- Assay Conditions: mean of both orientations
Reported Metric: interaction score

(A) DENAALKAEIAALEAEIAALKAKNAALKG [4H1552-AA]
(B) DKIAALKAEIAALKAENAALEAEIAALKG [4H2642-AA]
Exam item: Record comparison, field interaction score: mark the lower of A and B . Pick one; state its label.
Marked response: A
(A: -1.04, B: 0.299)

(P) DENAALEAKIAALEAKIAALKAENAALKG [4H1324-AA]
(Q) DKIAALKAEIAALEAEIAALKAKNAALEG [4H2575-AA]
Exam item: Record comparison, field interaction score: mark the lower of P and Q . Pick one; state its label.
Marked response: P

From: paper PMC10397247
